- testSystem: NS5A^33–202 domain 1, HCV genotype 1b (con1) (Hepatitis C virus genotype 1b, UniProt Q9WMX2)
- Sequence (Q9WMX2 2005-2174): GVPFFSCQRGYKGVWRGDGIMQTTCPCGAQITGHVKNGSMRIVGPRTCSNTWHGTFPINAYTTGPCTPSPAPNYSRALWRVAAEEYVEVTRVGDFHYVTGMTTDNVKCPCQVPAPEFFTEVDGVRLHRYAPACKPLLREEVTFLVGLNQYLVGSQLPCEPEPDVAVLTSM
observedProperty: Kd (nM)

COC(=O)N[C@H](C(=O)N1CCC[C@H]1c1nc(-c2ccc(-c3ccc(-c4c[nH]c([C@@H]5CCCN5C(=O)[C@@H](NC(=O)OC)C(C)C)n4)cc3)cc2)c[nH]1)C(C)C [BMS-790052, daclatasvir] :: 8

---

- testSystem: Y93H NS5A^33–202, HCV genotype 1b (con1) (Hepatitis C virus genotype 1b, UniProt Q9WMX2, Y2065H)
- testName: MST binding assay, Y93H resistance mutant
pKd: −log10 of the molar value.
observedProperty: pKd

COC(=O)N[C@H](C(=O)N1CCC[C@H]1c1nc(-c2ccc(-c3ccc(-c4c[nH]c([C@@H]5CCCN5C(=O)[C@@H](NC(=O)OC)C(C)C)n4)cc3)cc2)c[nH]1)C(C)C [BMS-790052, daclatasvir] :: < 6.30

---

- testSystem: NS5A^26–202 domain 1, HCV genotype 1b (con1) (Hepatitis C virus genotype 1b, UniProt Q9WMX2)
- Sequence (Q9WMX2 1998-2174): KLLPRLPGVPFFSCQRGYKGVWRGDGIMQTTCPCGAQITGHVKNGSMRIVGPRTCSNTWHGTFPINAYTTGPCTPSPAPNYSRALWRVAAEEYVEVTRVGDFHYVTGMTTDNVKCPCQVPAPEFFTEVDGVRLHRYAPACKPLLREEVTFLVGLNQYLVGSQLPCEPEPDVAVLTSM
pKd: −log10 of the molar value.
observedProperty: pKd

COC(=O)N[C@H](C(=O)N1CCC[C@H]1c1nc(-c2ccc(-c3ccc(-c4c[nH]c([C@@H]5CCCN5C(=O)[C@@H](NC(=O)OC)C(C)C)n4)cc3)cc2)c[nH]1)C(C)C [BMS-790052, daclatasvir] :: 6.68
